Each recorded value in this set is attributed to ChEMBL document CHEMBL6074641.

target_or_system: ALK tyrosine kinase receptor (Homo sapiens)
Sequence (Q9UM73 whole entry): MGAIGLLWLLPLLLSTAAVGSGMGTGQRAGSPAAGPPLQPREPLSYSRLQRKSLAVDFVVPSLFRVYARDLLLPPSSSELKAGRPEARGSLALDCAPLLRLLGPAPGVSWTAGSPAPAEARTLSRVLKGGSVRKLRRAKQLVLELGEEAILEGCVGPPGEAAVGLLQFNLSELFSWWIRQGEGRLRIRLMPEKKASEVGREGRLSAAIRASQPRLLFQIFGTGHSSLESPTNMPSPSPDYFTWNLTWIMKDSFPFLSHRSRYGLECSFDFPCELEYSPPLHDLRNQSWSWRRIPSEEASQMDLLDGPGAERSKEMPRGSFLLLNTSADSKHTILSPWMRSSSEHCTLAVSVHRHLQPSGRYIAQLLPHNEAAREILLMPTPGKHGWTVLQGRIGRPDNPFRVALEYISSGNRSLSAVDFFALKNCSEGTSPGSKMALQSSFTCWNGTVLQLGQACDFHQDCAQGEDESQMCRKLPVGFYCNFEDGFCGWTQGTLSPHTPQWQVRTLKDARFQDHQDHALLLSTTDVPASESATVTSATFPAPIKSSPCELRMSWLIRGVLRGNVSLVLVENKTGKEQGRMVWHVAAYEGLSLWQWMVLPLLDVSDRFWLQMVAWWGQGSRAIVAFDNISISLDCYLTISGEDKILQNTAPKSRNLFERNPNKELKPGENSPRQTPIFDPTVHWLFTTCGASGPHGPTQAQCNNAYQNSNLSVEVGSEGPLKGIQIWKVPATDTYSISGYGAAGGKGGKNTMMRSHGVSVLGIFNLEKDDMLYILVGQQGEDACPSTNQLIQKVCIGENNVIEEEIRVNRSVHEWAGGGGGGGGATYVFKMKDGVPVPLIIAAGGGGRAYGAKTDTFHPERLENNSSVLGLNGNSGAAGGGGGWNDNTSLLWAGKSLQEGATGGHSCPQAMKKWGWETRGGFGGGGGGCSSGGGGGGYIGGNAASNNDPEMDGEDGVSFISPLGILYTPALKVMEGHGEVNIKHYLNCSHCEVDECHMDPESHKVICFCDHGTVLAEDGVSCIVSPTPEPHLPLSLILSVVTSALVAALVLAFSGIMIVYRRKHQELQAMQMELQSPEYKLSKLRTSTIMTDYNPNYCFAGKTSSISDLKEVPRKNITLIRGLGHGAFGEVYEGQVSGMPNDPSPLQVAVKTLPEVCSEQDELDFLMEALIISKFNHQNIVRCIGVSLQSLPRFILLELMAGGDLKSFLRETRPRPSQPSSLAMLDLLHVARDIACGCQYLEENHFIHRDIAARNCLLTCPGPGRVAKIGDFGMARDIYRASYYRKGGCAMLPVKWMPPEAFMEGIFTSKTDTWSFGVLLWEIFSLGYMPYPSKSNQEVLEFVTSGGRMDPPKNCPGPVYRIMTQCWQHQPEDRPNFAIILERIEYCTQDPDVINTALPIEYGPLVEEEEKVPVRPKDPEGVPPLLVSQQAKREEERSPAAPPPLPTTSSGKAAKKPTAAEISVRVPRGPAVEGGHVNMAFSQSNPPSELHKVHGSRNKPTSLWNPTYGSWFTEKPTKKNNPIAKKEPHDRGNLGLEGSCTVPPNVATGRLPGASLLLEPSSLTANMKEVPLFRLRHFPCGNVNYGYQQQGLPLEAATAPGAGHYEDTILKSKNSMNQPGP
protocol_summary: Inhibition of recombinant ALK (1060 to end residues) (unknown origin) expressed in Escherichia coli […] using IGF1Rtide as substrate preincubated for 15 mins followed by substrate and ATP addition and measured after 90 mins by ADP-Glo luminescence […] assay
readout_label: pIC50
Give bare numbers, as −log10 of the molar value.

INSERT INTO results (chemical_smiles, val) VALUES
  ('COc1ccc(Nc2cnc(Nc3cc(C)cc(F)c3)c(C(N)=O)c2)cc1', 5.81),
  ('Cc1cc(F)cc(Nc2ncccc2C(N)=O)c1', 6.21),
  ('CCCc1ccc(Nc2cnc(Nc3cc(C)cc(F)c3)c(C(N)=O)c2)cc1', 5.48),
  ('Cc1cc(C)cc(Nc2cnc(Nc3cc(C)cc(F)c3)c(C(N)=O)c2)c1', 6.68),
  ('Cc1cc(F)cc(Nc2ncc(Nc3cccc(C#N)c3)cc2C(N)=O)c1', 5.65),
  ('Cc1cc(F)cc(Nc2ncc(Nc3ccc(C(F)(F)F)cc3)cc2C(N)=O)c1', 5.42),
  ('Cc1cc(F)cc(Nc2ncc(Nc3ccc(C(C)(C)C)cc3)cc2C(N)=O)c1', 6.08),
  ('Cc1cc(F)cc(Nc2ncc(Nc3ccccc3Cl)cc2C(N)=O)c1', 6.31),
  ('Cc1cc(F)cc(Nc2ncc(Nc3ccc(SC(F)(F)F)cc3)cc2C(N)=O)c1', 6.21),
  ('Cc1cc(F)cc(Nc2ncc(Nc3ccc(C)c(C)c3)cc2C(N)=O)c1', 5.98);

# batch: return pIC50 for each of the 4 molecules below
1. COc1ccc(Nc2cnc(Nc3cc(C)cc(F)c3)c(C(N)=O)c2)c(F)c1
2. Cc1cc(F)cc(Nc2ncc(Nc3ccc(-c4ccco4)cc3)cc2C(N)=O)c1
3. Cc1cc(F)cc(Nc2ncc(Nc3ccc(C#N)cc3)cc2C(N)=O)c1
4. Cc1cc(F)cc(Nc2ncc(Nc3ccccc3)cc2C(N)=O)c1

[A]
1: 5.84; 2: 5.84; 3: 5.52; 4: 5.90

# batch: return pIC50 for each of the 2 molecules below
1. Cc1cc(F)cc(Nc2ncc(Nc3ccc(Oc4ccccc4)cc3)cc2C(N)=O)c1
2. Cc1cc(F)cc(Nc2ncc(Nc3ccc(F)cc3F)cc2C(N)=O)c1

[A]
1: 5.42; 2: 6.11
